Measured pKd, listed per entry for reference.
- TARGET ENTITY: HLA-B*58:01
- TEST DETAILS: IEDB peptide-MHC binding, purified MHC/direct/fluorescence; filed as Kd, often an IC50 or EC50 that approximates it; bounds were set here for any values at or beyond the usual limits of such assays
- STUDY CONDITIONS: source organism: Giardia lamblia ATCC 50803
pKd: −log10 of the molar value.

*Q* Lab note: need pKd with HLA-B*58:01 for entry LERIKANIF , please look it up.
*A* ≤ 4.70

*Q* Lab note: need pKd with HLA-B*58:01 for entry QLKQRDALF , please look it up.
*A* ≤ 4.70

*Q* Lab note: need pKd with HLA-B*58:01 for entry IPRQWHPFA , please look it up.
*A* ≤ 4.70

* * *

Measured pKd, listed per entry for reference.
- TARGET ENTITY: HLA-B*51:01
- TEST DETAILS: IEDB peptide-MHC binding, purified MHC/competitive/radioactivity; filed as Kd, often an IC50 or EC50 that approximates it; bounds were set here for any values at or beyond the usual limits of such assays
- STUDY CONDITIONS: source organism: Vaccinia virus WR
pKd: −log10 of the molar value.

Solved entries:
TPNNLNKIQL
≤ 4.16
RLLIWAYLSK
≤ 4.47

*Q* Please report the recorded pKd for TVLGLGLSLK .
*A* ≤ 4.21

* * *

- TARGET ENTITY: HLA-A*11:01
- TEST DETAILS: IEDB peptide-MHC binding, purified MHC/competitive/radioactivity; filed as Kd, often an IC50 or EC50 that approximates it; bounds were set here for any values at or beyond the usual limits of such assays
- STUDY CONDITIONS: source organism: Vaccinia virus WR
Measured pKd, listed per entry for reference.
FYI, pKd means -log10 of a concentration in mol per litre.

Solved entries:
VSIILANER
7.33
ILSYIYSEIK
7.21
VTFRERYSYK
8.50
NVISSKISY
6.32
IICEDAMYY
6.71

*Q* Lab note: need pKd with HLA-A*11:01 for entry QTCAGVIEY , please look it up.
*A* 6.87

*Q* Lab note: need pKd with HLA-A*11:01 for entry RLLIWAYLSK , please look it up.
*A* 9.94

*Q* Lab note: need pKd with HLA-A*11:01 for entry EILKINSVK , please look it up.
*A* 5.81

*Q* Lab note: need pKd with HLA-A*11:01 for entry TAVCMKCFK , please look it up.
*A* 7.99

*Q* Lab note: need pKd with HLA-A*11:01 for entry DFRNRYEDY , please look it up.
*A* 5.10

* * *

- TARGET ENTITY: HLA-A*26:01
- TEST DETAILS: IEDB peptide-MHC binding, purified MHC/competitive/radioactivity; filed as Kd, often an IC50 or EC50 that approximates it; bounds were set here for any values at or beyond the usual limits of such assays
- STUDY CONDITIONS: source organism: SARS coronavirus Tor2
Measured Kd, listed per entry for reference.

YFMKFRRVF
≥ 49.3 µM
SASKSASVY
≥ 20.8 µM
EYKLQQGTF
≥ 77.9 µM
EYISDAFSL
≥ 77.9 µM
AMDEFIQRY
≥ 84.1 µM
VDSSQGSEY
≥ 24.4 µM

Now take the following sequence into account.
*Q* Lab note: need Kd with HLA-A*26:01 for entry MFLARAIVF , please look it up.
*A* ≥ 34.1 µM

* * *

- TARGET ENTITY: HLA-B*18:01
- TEST DETAILS: IEDB peptide-MHC binding, purified MHC/direct/fluorescence; filed as Kd, often an IC50 or EC50 that approximates it; bounds were set here for any values at or beyond the usual limits of such assays
- STUDY CONDITIONS: source organism: West Nile virus
pKd: −log10 of the molar value.
READOUT TYPE: pKd

AHYEEDVNL
≤ 4.70
YTMDGEYRL
≤ 4.70

Now take the following sequence into account.
*Q* Please report the recorded pKd for LVKTESWIL .
*A* ≤ 4.70

* * *

Measured pKd, listed per entry for reference.
- TARGET ENTITY: HLA-B*54:01
- TEST DETAILS: IEDB peptide-MHC binding, purified MHC/competitive/radioactivity; filed as Kd, often an IC50 or EC50 that approximates it; bounds were set here for any values at or beyond the usual limits of such assays
- STUDY CONDITIONS: source organism: Vaccinia virus WR
pKd: −log10 of the molar value.

Solved entries:
QIFEVYWYL
≤ 5.30
DPEKFNARM
≤ 4.11

*Q* Please report the recorded pKd for TVLGLGLSLK .
*A* ≤ 4.16

* * *

Measured pKd, listed per entry for reference.
- TARGET ENTITY: HLA-A*68:01
- TEST DETAILS: IEDB peptide-MHC binding, purified MHC/competitive/radioactivity; filed as Kd, often an IC50 or EC50 that approximates it; bounds were set here for any values at or beyond the usual limits of such assays
- STUDY CONDITIONS: source organism: Vaccinia virus WR
FYI, pKd means -log10 of a concentration in mol per litre.

LLIWAYLSK
6.82

Now take the following sequence into account.
*Q* Please report the recorded pKd for TVLGLGLSLK .
*A* 7.13

* * *

- TARGET ENTITY: HLA-B*44:03
- TEST DETAILS: IEDB peptide-MHC binding, purified MHC/competitive/radioactivity; filed as Kd, often an IC50 or EC50 that approximates it; bounds were set here for any values at or beyond the usual limits of such assays
- STUDY CONDITIONS: source organism: SARS coronavirus Tor2
Measured Kd, listed per entry for reference.

GDRWFLNRFT
≥ 70.1 µM
ADYSVLYNST
≥ 45.7 µM

*Q* Please report the recorded Kd for RERVNINIV .
*A* ≥ 38.2 µM

* * *

- TARGET ENTITY: HLA-A*02:01
- TEST DETAILS: IEDB peptide-MHC binding, purified MHC/competitive/fluorescence; bounds were set here for any values at or beyond the usual limits of such assays
- STUDY CONDITIONS: source organism: Sudan ebolavirus
pIC50: −log10 of the molar value.
Measured pIC50, listed per entry for reference.

Solved entries:
VTNSTLEVT
≤ 3.91
KINQIIHDF
≤ 4.10

*Q* Please report the recorded pIC50 for GMVPLHIPE .
*A* ≤ 3.99

* * *

- TARGET ENTITY: HLA-A*33:01
- TEST DETAILS: IEDB peptide-MHC binding, purified MHC/competitive/radioactivity; filed as Kd, often an IC50 or EC50 that approximates it; bounds were set here for any values at or beyond the usual limits of such assays
- STUDY CONDITIONS: source organism: Vaccinia virus WR
Measured Kd, listed per entry for reference.

Solved entries:
QAIEPSGNNY
≥ 70 µM
AVRYYDGNIY
≥ 70 µM
SSRVDRYSKK
≥ 29.6 µM
FSKNILKYY
≥ 77.7 µM

Now take the following sequence into account.
*Q* Lab note: need Kd with HLA-A*33:01 for entry KSDAKRNSK , please look it up.
*A* ≥ 77.7 µM

* * *

Measured Kd, listed per entry for reference.
- TARGET ENTITY: HLA-A*30:02
- TEST DETAILS: IEDB peptide-MHC binding, purified MHC/competitive/radioactivity; filed as Kd, often an IC50 or EC50 that approximates it; bounds were set here for any values at or beyond the usual limits of such assays
- STUDY CONDITIONS: source organism: SARS coronavirus Tor2

Solved entries:
YFMKFRRVF
≥ 22.1 µM
EYISDAFSL
≥ 81.1 µM

Now take the following sequence into account.
*Q* Please report the recorded Kd for EYKLQQGTF .
*A* ≥ 78.9 µM

* * *

Measured Kd, listed per entry for reference.
- TARGET ENTITY: HLA-A*31:01
- TEST DETAILS: IEDB peptide-MHC binding, purified MHC/competitive/radioactivity; filed as Kd, often an IC50 or EC50 that approximates it; bounds were set here for any values at or beyond the usual limits of such assays
- STUDY CONDITIONS: source organism: Vaccinia virus WR
State the answer as a number, implicitly in nM.

RLLIWAYLSK
447
ILTYNKTSK
1620

*Q* Lab note: need Kd with HLA-A*31:01 for entry EILKINSVK , please look it up.
*A* 2080

* * *

- TARGET ENTITY: HLA-A*31:01
- TEST DETAILS: IEDB peptide-MHC binding, purified MHC/competitive/radioactivity; filed as Kd, often an IC50 or EC50 that approximates it; bounds were set here for any values at or beyond the usual limits of such assays
- STUDY CONDITIONS: source organism: Vaccinia virus WR
Measured Kd, listed per entry for reference.

ILSYIYSEIK
≥ 37 µM
DFRNRYEDY
≥ 77.9 µM

Now take the following sequence into account.
*Q* Please report the recorded Kd for NSYISNIIY .
*A* ≥ 23.7 µM
